target: GST-hCAR-LBD (Homo sapiens); experiment: CAR-mediated fluorescent PGC1α coactivator recruitment/repression assay; conditions: ratio of IC50 values, comparator 11 (IC50 687 nM)
Sequence (Q14994 109-348 isoform Q14994-2 limits assumed): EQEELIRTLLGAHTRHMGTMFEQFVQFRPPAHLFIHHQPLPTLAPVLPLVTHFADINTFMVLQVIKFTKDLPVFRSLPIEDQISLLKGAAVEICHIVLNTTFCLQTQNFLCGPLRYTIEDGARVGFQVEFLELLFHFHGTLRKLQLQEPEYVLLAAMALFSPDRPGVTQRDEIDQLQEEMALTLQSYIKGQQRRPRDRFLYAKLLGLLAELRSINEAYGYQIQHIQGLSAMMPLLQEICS
assay.metric: fold increase of IC50 (less potent) relative to lead chemical 11 (fold)

- smiles.string: "CCOC(=O)Nc1ccc2c(c1)N(C(=O)CCN(CC)CC)c1ccccc1CC2"
  measured.target: "GST-hCAR-LBD (Homo sapiens)"
  unit.of.measure: "fold"
  numeric.value: 3.5

a = CCOC(=O)Nc1ccc2c(c1)N(C(=O)CN1CCN(C)CC1)c1ccccc1CC2
b = CCOC(=O)Nc1ccc2c(c1)N(C(=O)CNC(C)(C)CC)c1ccccc1CC2
c = CCOC(=O)Nc1ccc2c(c1)N(C(=O)CNC(C)(C)C)c1ccccc1CC2
Please put the entries in order of rising fold increase of IC50 (less potent) relative to lead chemical 11. Give me the labels in the order the question wants.
b, c, a
